These data points were gathered from patent US6706663B2.

# Test system: GLXMAW (Soybean, Williams)
# Assay Overview: Postemergence herbicidal evaluation
# Format: in vivo, Glycine max, (L.) Merr. cv Williams
# Measurement Context: rate 0.0620 kg/ha
# Description: In the tests, seedling plants are grown in jiffy flats for about two weeks. […] After spraying, the plants are placed on greenhouse benches and are cared for in accordance with conventional greenhouse procedures. From four to five weeks after treatment, the seedling plants are examined and rated according to the rating system set forth below. Where more than one test is involved for a given compound, the data are averaged. Results of herbicide evaluation are expressed on a rating scale (0-9). […]
Property Label: Postemergence herbicidal rating, GLXMAW
One number for each entry.

Consider the reported Postemergence herbicidal rating, GLXMAW for these molecules:
| Item Smiles | Property Label | Measured Value |
| --- | --- | --- |
| CCOc1cc(OCC)nc(-c2nsc3ccc(-n4c(=O)cc(C(F)(F)F)n(C)c4=O)cc23)n1 | Postemergence herbicidal rating, GLXMAW | 6.0 |
| Cc1ccc(-c2nsc3ccc(-n4c(=O)cc(C(F)(F)F)n(C)c4=O)cc23)nc1 | Postemergence herbicidal rating, GLXMAW | 8.0 |
| Cn1c(C(F)(F)F)cc(=O)n(-c2ccc3snc(-c4ncccn4)c3c2)c1=O | Postemergence herbicidal rating, GLXMAW | 8.5 |

Shifting focus to the molecule that follows.
Entry under test: Cn1c(C(F)(F)F)cc(=O)n(-c2ccc3snc(C4OCC(C)(C)CO4)c3c2)c1=O . Its Postemergence herbicidal rating, GLXMAW was 9.0
